B1: 3'-5' exoribonuclease 1, residues 65 to 114; numbered along this chain, Q8IV48 (parent)
chain: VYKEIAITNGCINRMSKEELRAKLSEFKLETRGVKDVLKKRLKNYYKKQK

variants of: B1; assay: abundance fitness (aPCA) (normalised: wild type 0, dead -1); higher = more abundant; growth selection in yeast, the domain comes from the species named; details: Homo sapiens
Classes by abundance fitness: c1 = under -0.7, c2 = from -0.7 up to -0.2, c3 = -0.2 and over

>>> classification("E30K")
"c2"
>>> classification("K40G")
"c1"
>>> classification("N9V")
"c3"

Input: Dear colleague, I would appreciate it if you could identify the bin for `Y2S` and reply at your convenience.
Output: c3

Input: Dear colleague, I would appreciate it if you could identify the bin for `V37T` and reply at your convenience.
Output: c3
